Target: human NAMPT (Homo sapiens (Human), UniProt P43490)
Sequence (P43490 whole entry): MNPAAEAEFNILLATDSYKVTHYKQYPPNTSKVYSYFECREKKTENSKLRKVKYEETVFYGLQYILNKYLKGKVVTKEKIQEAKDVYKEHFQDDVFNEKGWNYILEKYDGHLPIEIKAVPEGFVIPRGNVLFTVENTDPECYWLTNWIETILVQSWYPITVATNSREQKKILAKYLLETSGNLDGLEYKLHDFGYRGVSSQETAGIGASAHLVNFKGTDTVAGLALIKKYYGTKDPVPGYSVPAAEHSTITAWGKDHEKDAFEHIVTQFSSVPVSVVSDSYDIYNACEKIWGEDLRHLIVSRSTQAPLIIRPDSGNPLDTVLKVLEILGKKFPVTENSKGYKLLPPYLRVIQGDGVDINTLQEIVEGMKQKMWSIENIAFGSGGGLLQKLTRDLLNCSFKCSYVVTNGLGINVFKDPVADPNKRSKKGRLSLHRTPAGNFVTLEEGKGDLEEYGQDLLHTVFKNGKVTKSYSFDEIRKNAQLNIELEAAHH
Assay: NMN fluorescence biochemical assay (human recombinant NAMPT enzyme assay)
AC1.4 Human overview
The reply should be a number in µM, with the unit left off.

Entry under test: O=C(Nc1ccc(CC2CCN(C(=O)C3CC(F)(F)C3)CC2)cc1)OCc1cnco1 . Its AC1.4 Human was 0.98

Form: compound = Cc1cc(C)c(C(=O)NCc2ccc(NC(=O)OCc3ccc(Cl)cc3)cc2)cn1 ; AC1.4 Human = 1.38

In plain terms, C[C@H](NC(=O)c1cnco1)c1ccc(NC(=O)OCc2ccc(Cl)cc2)cc1 has a documented AC1.4 Human of 2.43

Entry Cc1cc(C(=O)N[C@@H](C)c2ccc(NC(=O)OCc3ccc(Cl)cc3)cc2)on1 — recorded AC1.4 Human = 1.78

For reference, reported AC1.4 Human for O=C(Nc1ccc(CC(=O)N2CCC[C@H]2CO)cc1)OCc1ccc(Cl)cc1 stands at 1.82

More entries:
AC1.4 Human measured on O=C(Nc1ccc(CNC(=O)c2cncc(F)c2)cc1)OCc1ccc(Cl)cc1 = 3.15

// sample O=C(Nc1ccc(CCC2CCN(C3COC3)CC2)cc1)OCc1cnco1 , its AC1.4 Human was 1.06

The compound identified as O=C(Nc1ccc(Cc2ccncc2)cc1)OCc1cncs1 registered its AC1.4 Human at 1.78

Summary for this compound, O=C(Nc1ccc(CNC(=O)N2CCCCC2)cc1)OCc1ccc(Cl)cc1 : AC1.4 Human is 3.79

Documented AC1.4 Human of O=C(Nc1ccc(CC2CC3CCC(C2)N3C(=O)N2CCC2)cc1)OCc1cnco1 (stereo not drawn) : 0.13

----------
Target: human NAMPT (Homo sapiens (Human))
Assay: NMN fluorescence biochemical assay (human recombinant NAMPT enzyme assay)
Define the label as YES when AC1.4 Human is strictly less than 2 µM and as NO in all remaining cases.

See these solved cases before continuing.
Quick check: AC1.4 Human of O=C(Nc1ccc(CN2CCOCC2=O)cc1)OCc1ccc(Cl)cc1 [Compound 86] under 2 µM?
YES

Check if AC1.4 Human falls below 2 µM for CC(C)C(=O)N1CCC2(CC(Cc3ccc(NC(=O)OCc4cnco4)cc3F)C2)C1 (stereo not drawn) [Compound 368] .
YES

Given O=C(Cc1ccc(NC(=O)OCc2ccc(Cl)cc2)cc1)NC1COC1 [Compound 339] , is recorded AC1.4 Human strictly lower than 2 µM?
NO

Just wondering, is AC1.4 Human of CC(=O)N1CCC(c2ccc(NC(=O)OCc3cnco3)cc2F)CC1 [Compound 413] below 2 µM?
YES

Regarding O=C(Nc1ccc(COC2CCN(C3COC3)CC2)cc1)OCc1ccc(Cl)cc1 [Compound 232] , kindly confirm whether its AC1.4 Human is beneath 2 µM.
NO

hey, is AC1.4 Human for Cc1cnoc1C(=O)N[C@@H](C)c1ccc(NC(=O)OCc2ccc(Cl)cc2)cc1 [Compound 142] lower than 2 µM or not?
YES

# strict comparison: is reported AC1.4 Human < 2 µM? input = O=C(Nc1ccc(Cc2ccncc2)cc1)OCc1cnoc1 [Compound 333]
NO

Below 2 µM on AC1.4 Human? Entry CS(=O)(=O)N1CCC2(CC(Cc3ccc(NC(=O)OCc4cnco4)cc3F)C2)C1 (stereo not drawn) [Compound 370]
YES

Is AC1.4 Human of O=C1CN(C2CCC2)[C@@H](c2ccc(NC(=O)OCc3ccc(Cl)cc3)cc2)CN1 [Compound 236] strictly below 2 µM?
NO

Determine whether this compound shows AC1.4 Human lower than 2 µM (ties excluded): O=C(Cc1ccc(NC(=O)OCc2ccc(Cl)cc2)cc1)Nc1cncc(F)c1 [Compound 273]
NO

Further cases:
Hi there! Is AC1.4 Human for O=C(Nc1ccc(CNC(=O)N2CCC2)cc1)OCc1ccc(Cl)cc1 [Compound 265] below 2 µM, do you know?
NO

Please state whether AC1.4 Human is below 2 µM for O=C(Nc1ccc(Cc2ccncc2)cc1)OCc1ccncn1 [Compound 349]
NO

Please let me know if O=C(Nc1ccc(CC2CCN(C3COC3)CC2)cc1)OCc1cncs1 [Compound 466] shows AC1.4 Human below 2 µM.
YES

# TODO verify AC1.4 Human < 2 µM strictly for this compound: CN(C)S(=O)(=O)N1CCC(Cc2ccc(NC(=O)OCc3cnco3)cc2)CC12CC2 (stereo not drawn) [Compound 440]
YES

Quick check: AC1.4 Human of C[C@H](NC(=O)N1CCOCC1)c1ccc(NC(=O)OCc2ccc(Cl)cc2)cc1 [Compound 154] under 2 µM?
YES

# TODO verify AC1.4 Human < 2 µM strictly for this compound: C[C@H](NC(=O)c1ccnn1C1CCC1)c1ccc(NC(=O)OCc2ccc(Cl)cc2)cc1 [Compound 210]
YES

For CC(C)C(=O)N1C2CCC1CC(Cc1ccc(NC(=O)OCc3cnco3)cc1)C2 (stereo not drawn) [Compound 409] , is the recorded AC1.4 Human below the cut-off of 2 µM?
YES

Just for reference, patent US20240279215A1 is where these values come from.
